The compounds below have reported pIC50 for Glutamate NMDA receptor.
pIC50: −log10 of the molar value.
Metric Name: pIC50

Sample Smiles | Metric Name | Value Reported
NCCCN1c2ccccc2Sc2ccc(Cl)cc21 | pIC50 | 5.24
COC(=O)[C@@H](N)Cc1c[nH]c2ccccc12 | pIC50 | 3.77
C[C@@H](CN)C(c1cccc(F)c1)c1cccc(F)c1 | pIC50 | 6.96
C[C@](N)(Cc1ccccc1)c1ccccc1 | pIC50 | 6.11
CN[C@@]1(c2ccccc2Cl)CCCCC1=O | pIC50 | 5.67
CN[C@]1(c2ccccc2Cl)CCCCC1=O | pIC50 | 6.19
c1ccc(C2(N3CCCCC3)CCCCC2)cc1 | pIC50 | 6.96
NCCOC(c1ccccc1)c1ccccc1 | pIC50 | 5.26
N=C(N)c1ccc(N2CCCN(c3ccc(C(=N)N)cc3)CC2)cc1 | pIC50 | 6.46
NCCCCCCCCc1ccc(CCCCN)s1 | pIC50 | 6.37
CN(C)CCCN1c2ccccc2Sc2ccc(Cl)cc21 | pIC50 | 4.68
NCCCCCCCCCCCCN | pIC50 | 5.08
NCCCC12CCC(c3ccccc31)c1ccccc12 | pIC50 | 5.13
NC(N)=NCCCCN=C(N)N | pIC50 | 5.19
